Values from paper PMC11206913

- System: A. castellanii L10 cysts
- protocol: Cysticidal activity, alamarBlue method
- Type: cell-based, Acanthamoeba castellanii L10
- test_parameters: Acanthamoeba castellanii, read-out: IC50 cysticidal effect
measured_attribute: IC50 (µM)

test_smiles=C=CCNc1nc(NCC=C)nc(N2CCN(C(c3ccc(F)cc3)c3ccc(F)cc3)CC2)n1 data_value=8.76

###

- Tested on: A. castellanii L10 trophozoites
- protocol: Trophocidal activity, alamarBlue assay
- Type: cell-based
- test_parameters: Acanthamoeba castellanii, read-out: IC50 trophocidal effect
measured_attribute: IC50 (µM)

molecule="CC(C)N1CCN(c2ccc(OCC3COC(Cn4cncn4)(c4ccc(Cl)cc4Cl)O3)cc2)CC1 (stereo not shown)" target_under_test="A. castellanii L10 trophozoites" data_value=9.07
